target: CYP1A1 (Mus musculus, UniProt P00184); experiment: Inhibition of CYP1A1 in mouse RAW264.7 cells assessed as relative activity by measuring fold change at 5 uM incubated for 12 hrs by EROD assay relative to control; type: cell-based; conditions: read-out: FC
measurementLabel: fold induction at 12 h, 5 µM
Answer with the value's number alone.

| smilesString | targetSystem | measurementLabel | number |
| --- | --- | --- | --- |
| C#Cc1ccc(/C=C/C(=O)c2ccc3c(c2)n(C)c(=O)n3C)cc1 | CYP1A1 (Mus musculus, UniProt P00184) | fold induction at 12 h, 5 µM | 0.19 |
| COc1ccc2c(c1)c(/C=C/C(=O)c1ccc3c(c1)n(C)c(=O)n3C)cn2Cc1ccccc1 | CYP1A1 (Mus musculus, UniProt P00184) | fold induction at 12 h, 5 µM | 0.81 |
| Cn1c(=O)n(C)c2cc(C(=O)/C=C/c3ccco3)ccc21 | CYP1A1 (Mus musculus, UniProt P00184) | fold induction at 12 h, 5 µM | 0.31 |
| Cn1c(=O)n(C)c2cc(C(=O)/C=C/c3ccsc3)ccc21 | CYP1A1 (Mus musculus, UniProt P00184) | fold induction at 12 h, 5 µM | 0.32 |
| Cn1c(=O)n(C)c2cc(C(=O)/C=C/c3ccc(F)cc3F)ccc21 | CYP1A1 (Mus musculus, UniProt P00184) | fold induction at 12 h, 5 µM | 0.56 |

### Prompt Form field: reported fold induction at 12 h, 5 µM of Cn1c(=O)n(C)c2cc(C(=O)/C=C/c3ccc([N+](=O)[O-])o3)ccc21
### Response 0.24

### Prompt How about this compound: Cn1c(=O)n(C)c2cc(C(=O)/C=C/c3ccc(F)cc3)ccc21
### Response 0.19

###

Molecular target: CYP1A1 (Mus musculus, UniProt P00184)
Sequence (P00184 whole entry): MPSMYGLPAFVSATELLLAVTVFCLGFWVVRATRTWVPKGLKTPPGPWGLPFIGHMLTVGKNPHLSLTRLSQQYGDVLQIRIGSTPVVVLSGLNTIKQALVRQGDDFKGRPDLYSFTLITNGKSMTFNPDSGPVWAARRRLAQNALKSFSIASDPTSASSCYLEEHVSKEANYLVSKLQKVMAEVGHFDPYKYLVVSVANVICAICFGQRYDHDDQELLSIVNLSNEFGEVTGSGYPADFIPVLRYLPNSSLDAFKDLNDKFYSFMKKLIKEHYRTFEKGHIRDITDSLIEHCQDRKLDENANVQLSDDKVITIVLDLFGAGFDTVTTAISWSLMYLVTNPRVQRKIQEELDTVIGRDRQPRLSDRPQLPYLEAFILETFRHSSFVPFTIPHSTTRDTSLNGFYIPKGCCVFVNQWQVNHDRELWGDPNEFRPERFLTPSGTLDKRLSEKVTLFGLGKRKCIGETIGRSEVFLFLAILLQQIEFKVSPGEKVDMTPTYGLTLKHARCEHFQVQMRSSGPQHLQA
Assay: Inhibition of CYP1A1 in mouse RAW264.7 cells assessed as relative activity by measuring fold change at 500 nM incubated for 12 hrs by EROD assay relative to control
Format: cell-based
Conditions: read-out: FC
Measured fold induction at 12 h, 0.5 µM values are reported for all entries that follow.

| smilesString | fold induction at 12 h, 0.5 µM |
| --- | --- |
| Cn1cc(/C=C/C(=O)c2ccc3c(c2)n(C)c(=O)n3C)c2ccccc21 | 0.72 |
| Cn1c(=O)n(C)c2cc(C(=O)/C=C/c3ccc(F)cc3)ccc21 | 0.29 |
| Cn1c(=O)n(C)c2cc(C(=O)/C=C/C=C/c3ccc(F)cc3)ccc21 | 0.82 |
| COc1ccc2c(c1)c(/C=C/C(=O)c1ccc3c(c1)n(C)c(=O)n3C)cn2Cc1ccccc1 | 1.15 |
| Cn1c(=O)n(C)c2cc(C(=O)/C=C/c3ncccn3)ccc21 | 0.73 |
| Cn1c(=O)n(C)c2cc(C(=O)/C=C/c3cccc(OC(F)(F)F)c3)ccc21 | 0.62 |
| Cn1c(=O)n(C)c2cc(C(=O)/C=C/c3ccc(-c4ccccc4)cc3)ccc21 | 0.96 |
| C#Cc1ccc(/C=C/C(=O)c2ccccc2)cc1 | 0.52 |

### Prompt Value wanted: fold induction at 12 h, 0.5 µM (CYP1A1 (Mus musculus, UniProt P00184)) of entry Cn1c(=O)n(C)c2cc(C(=O)/C=C/c3cn(Cc4ccccc4)c4ccccc34)ccc21
### Response 0.84

### Prompt Again, but for Cn1c(=O)n(C)c2cc(C(=O)/C=C/c3cccnc3)ccc21
### Response 2.57

### Prompt And the next one, Cn1c(=O)n(C)c2cc(C(=O)/C=C/c3ccccc3P(c3ccccc3)c3ccccc3)ccc21 ?
### Response 0.86

### Prompt Okay, and Cn1c(=O)n(C)c2cc(C(=O)/C=C/c3ccc(B(O)O)cc3F)ccc21 ?
### Response 1.02
